# assay conditions: in ethanol, 313.15 K
endpoint: solubility (mole fraction)
The answer should be written as a number, with no unit following it.

What value of measured solubility (mole fraction) is listed for `Cc1cccc(C(=O)O)c1[N+](=O)[O-]` ? 0.0257

###

# assay conditions: in ethyl acetate, 285.65 K
endpoint: solubility (mole fraction)
Number only, please.

Need solubility (mole fraction), item `Cc1cccc(C(=O)O)c1[N+](=O)[O-]` 0.00965

###

# assay conditions: in 1,4-dioxane, 318.15 K
endpoint: solubility (mole fraction)

For `Cc1cccc(C(=O)O)c1[N+](=O)[O-]` , what is its reported solubility (mole fraction)? 0.0646
